Entry source: patent US20240390418A1

# ASSAY_SYSTEM: T1, N-10 peptide
# T1 construct: also called PSMGFR N-10; PSMGFR minus 10 amino acids from the N-terminus
# T1 peptide: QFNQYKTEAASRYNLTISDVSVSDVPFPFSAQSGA
# METHOD_DESCRIPTION: ELISA, peptide on plate (FIG. 201B)
ATTRIBUTE_MEASURED: binding result

INSERT INTO results (binder, reported) VALUES
  ('monoclonal antibody 8C7F3 (antibody, V domains shown, Raised against PSMGFR) VH: EVMLVESGGGLVKPGGSLKLSCAASGFTFSTYAMSWVRQTPEKRLEWVAAISNGGGYTYYPDSLKGRFTISRDNAKNTLYLQMSSLRSEDTATYYCARRYYDHYFDYWGQGTALTVSS VL: IIVLTQSPASLAVSLGQRATISCRASESVATYGNNFMQWYQQKPGQPPKLLIYLASTLDSGVPARFSGSGSRTDFTLTIDPVEADDAATYYCQQNNEDPPTFGGGTKLEIK', 'binds'),
  ('monoclonal antibody B7 (antibody, V domains shown, Raised against PSMGFR) VH: EVQVVESGGDLVKPGGSLKLSCAASGFTFSRYGMSWVRQTPDKRLEWVATISSGGTYIYYPDSVKGRFTISRDNAKNTLYLQMSSLKSEDTAMYYCARDNYGSSYDYAMDYWGQGTSVTVSS VL: DVLMTQTPLSLPVSLGDQASISCRSSQTIVHSNGNTYLEWYLQKPGQSPKLLIYKVSNRFSGVPDRFSGSGSGTDFTLKISRVEAEDLGVYYCFQDSHVPLTFGAGTKLELK', 'binds'),
  ('monoclonal antibody B9 (antibody, V domains shown, Raised against PSMGFR) VH: EVQVVESGGDLVKPGGSLKLSCAASGFTFSRYGMSWVRQTPDKRLEWVATISSGGTYIYYPDSVKGRFTISRDNAKNTLYLQMSSLKSEDTAMYYCARDNYGSSYDYAMDYWGQGTSVTVSS VL: QIVLTQSPAIMSASPGEEVTLTCSASSSVSYMHWFQQRPGTSPKLWIYTTSNLASGVPARFSGSGSGTSYSLTISRMEAEDAATYYCQQRSSYPFTFGSGTKLEIK', 'binds');
